// values below are reported pIC50
assay: in vitro; settings: dog, MDCK II cells (Madin–Darby canine kidney II)
pIC50: −log10 of the molar value.
measuredAttribute: pIC50

In [3]: df
Out[3]:
                                   compound  reportedvalue
0  O=P(O)(O)c1nc2ccc(-c3ccc(Cl)cc3)cc2nc1P(=O)(O)O         < 3.70
1  O=P(O)(O)c1nc2cc(Cl)c(Cl)cc2nc1P(=O)(O)O         < 3.70
2  CC(=O)Nc1ccccc1OCc1cn(CCNC(=O)C(CC(C)C)C(=O)NO)nn1 (stereo not shown)         < 3.70
3  O=C(Nc1ccc(Cl)c(Cl)c1)c1ccc2nc(P(=O)(O)O)c(P(=O)(O)O)nc2c1         < 4.00

###

biological target: MMP-2 (Homo sapiens); construct: catalytic domains of three human MMPs; purchased Sigma-Aldrich; test: MMP inhibition assay, MMP-2; assay type: biochemical
Sequence (P08253 110-444 limits assumed): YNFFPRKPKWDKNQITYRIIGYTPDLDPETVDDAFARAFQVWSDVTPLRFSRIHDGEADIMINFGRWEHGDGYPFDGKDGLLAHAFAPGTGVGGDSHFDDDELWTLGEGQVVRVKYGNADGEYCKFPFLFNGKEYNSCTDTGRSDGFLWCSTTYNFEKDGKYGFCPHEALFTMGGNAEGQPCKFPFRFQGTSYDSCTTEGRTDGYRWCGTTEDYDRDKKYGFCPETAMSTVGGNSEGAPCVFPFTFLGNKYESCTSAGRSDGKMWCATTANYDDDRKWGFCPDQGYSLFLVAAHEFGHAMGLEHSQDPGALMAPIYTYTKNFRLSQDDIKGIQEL
measuredAttribute: IC50

                                   compound  measuredattribute  reportedvalue
0  O=P(O)(O)c1nc2ccc(-c3ccc(Cl)cc3)cc2nc1P(=O)(O)O [Compound 15]               IC50       > 100 µM
1  NCCCC(O)(P(=O)([O-])O)P(=O)(O)O.[Na+] [Alendronate sodium, reference compound]               IC50       > 100 µM
2  CC(=O)Nc1ccccc1OCc1cn(CCNC(=O)C(CC(C)C)C(=O)NO)nn1 (stereo not drawn) [Compound 27]               IC50       > 100 µM
3  O=P([O-])(O)C(Sc1ccc(Cl)cc1)P(=O)([O-])O.[Na+].[Na+] [Tiludronate disodium, reference compound]               IC50       > 100 µM
4  O=P(O)(O)c1nc2cc(Cl)c(Cl)cc2nc1P(=O)(O)O [Compound 13]               IC50          79 µM
5  O=C(Nc1ccc(Cl)c(Cl)c1)c1ccc2nc(P(=O)(O)O)c(P(=O)(O)O)nc2c1 [Compound 14]               IC50       > 100 µM

###

molecular target: ColG-CU (Hathewaya histolytica, UniProt Q9X721); experiment: biochemical; assay type: biochemical, C. histolyticum; conditions: 100 μM; read-out: Percent inhibition of ColG-CU
Sequence (Q9X721 111-786): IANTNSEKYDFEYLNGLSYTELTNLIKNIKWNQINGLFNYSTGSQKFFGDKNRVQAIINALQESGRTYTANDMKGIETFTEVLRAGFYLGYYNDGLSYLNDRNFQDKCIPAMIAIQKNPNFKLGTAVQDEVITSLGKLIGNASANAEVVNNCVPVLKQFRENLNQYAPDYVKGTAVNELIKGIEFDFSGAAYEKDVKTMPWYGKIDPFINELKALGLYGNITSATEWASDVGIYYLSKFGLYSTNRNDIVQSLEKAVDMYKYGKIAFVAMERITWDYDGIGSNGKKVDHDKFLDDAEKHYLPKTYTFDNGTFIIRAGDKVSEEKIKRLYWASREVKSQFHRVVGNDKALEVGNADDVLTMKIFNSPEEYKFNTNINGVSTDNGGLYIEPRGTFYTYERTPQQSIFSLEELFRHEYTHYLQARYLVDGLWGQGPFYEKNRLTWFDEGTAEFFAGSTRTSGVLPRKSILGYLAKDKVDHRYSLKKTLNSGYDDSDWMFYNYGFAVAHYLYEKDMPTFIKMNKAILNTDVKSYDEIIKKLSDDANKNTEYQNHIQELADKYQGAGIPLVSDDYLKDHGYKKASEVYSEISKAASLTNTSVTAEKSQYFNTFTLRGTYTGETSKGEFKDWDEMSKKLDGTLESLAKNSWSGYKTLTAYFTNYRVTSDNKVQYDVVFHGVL
Form field: inhibition at 100 µM (one value per entry).
measuredAttribute: inhibition at 100 µM (%)

>>> df
                                   molecule  reportedvalue
0  O=P(O)(O)c1nc2cc(Cl)c(Cl)cc2nc1P(=O)(O)O             68
1  CC(=O)Nc1ccccc1OCc1cn(CCNC(=O)C(CC(C)C)C(=O)NO)nn1 (centres unmarked)             71
2  O=P([O-])(O)C(Sc1ccc(Cl)cc1)P(=O)([O-])O.[Na+].[Na+] [Tiludronate disodium, reference compound]             28
3  O=C(Nc1ccc(Cl)c(Cl)c1)c1ccc2nc(P(=O)(O)O)c(P(=O)(O)O)nc2c1             72
4  O=P(O)(O)c1nc2ccc(-c3ccc(Cl)cc3)cc2nc1P(=O)(O)O             70
